# ASSAY_TARGET: T1, mfNPR1-mFc:hANP complex (monkey; human, UniProt P01160 124-151)
# T1 construct: also called monkey NPR1 complexed to ANP
# ASSAY_PROCEDURE: SPR, mAb captured, 25C
Below, each entry is listed alongside its reported koff.
Write down the numeric answer in s⁻¹ and omit the unit.

In the examples that follow, each entry is paired with its recorded koff.
mAb22033 (antibody, human IgG4, V domains shown) VH: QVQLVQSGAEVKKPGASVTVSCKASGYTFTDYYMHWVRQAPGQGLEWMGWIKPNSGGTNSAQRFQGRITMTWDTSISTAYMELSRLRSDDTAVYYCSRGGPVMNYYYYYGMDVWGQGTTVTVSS VL: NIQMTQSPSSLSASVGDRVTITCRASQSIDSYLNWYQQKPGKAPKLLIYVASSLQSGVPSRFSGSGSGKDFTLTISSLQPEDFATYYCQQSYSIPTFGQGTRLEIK; 5.36e-05
mAb25479 (antibody, human IgG4, V domains shown) VH: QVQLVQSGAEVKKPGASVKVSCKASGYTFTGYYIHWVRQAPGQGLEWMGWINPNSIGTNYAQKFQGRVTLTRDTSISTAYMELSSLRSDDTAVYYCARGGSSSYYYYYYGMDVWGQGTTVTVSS VL: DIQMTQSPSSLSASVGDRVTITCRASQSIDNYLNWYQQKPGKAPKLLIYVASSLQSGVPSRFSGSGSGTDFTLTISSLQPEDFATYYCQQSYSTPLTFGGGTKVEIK; 0.000103
mAb25491 (antibody, human IgG4, V domains shown) VH: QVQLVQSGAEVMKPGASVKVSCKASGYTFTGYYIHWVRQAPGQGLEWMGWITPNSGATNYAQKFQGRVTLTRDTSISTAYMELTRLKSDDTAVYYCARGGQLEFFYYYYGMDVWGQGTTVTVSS VL: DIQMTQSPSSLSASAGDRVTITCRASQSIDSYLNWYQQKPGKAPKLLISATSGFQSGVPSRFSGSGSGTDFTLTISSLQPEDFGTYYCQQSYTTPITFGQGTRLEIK; 4.55e-05
mAb22809 (antibody, human IgG4, V domains shown) VH: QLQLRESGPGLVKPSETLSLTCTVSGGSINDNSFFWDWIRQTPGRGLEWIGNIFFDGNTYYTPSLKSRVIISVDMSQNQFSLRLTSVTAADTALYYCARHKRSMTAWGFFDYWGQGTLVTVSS VL: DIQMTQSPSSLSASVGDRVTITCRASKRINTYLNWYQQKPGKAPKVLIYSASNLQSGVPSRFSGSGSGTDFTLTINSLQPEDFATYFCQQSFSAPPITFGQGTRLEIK; 0.000173

// below: koff requested for another binder
Query block: Look at this binder and give its reported koff. mAb22035 (antibody, human IgG4, V domains shown) VH: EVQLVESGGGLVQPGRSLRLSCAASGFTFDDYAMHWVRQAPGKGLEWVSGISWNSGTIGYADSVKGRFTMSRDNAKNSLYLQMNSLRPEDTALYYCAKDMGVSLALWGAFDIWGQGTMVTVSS VL: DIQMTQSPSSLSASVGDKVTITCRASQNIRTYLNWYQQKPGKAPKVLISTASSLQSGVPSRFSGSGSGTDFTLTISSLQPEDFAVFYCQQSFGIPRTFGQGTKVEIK
Result block: 4.66e-05

Attribution: patent US20240309103A1
